# target.or.system: T1, human PD-L1 (Programmed Death Ligand-1), protein used in Biacore and ELISA (human, UniProt Q9NZQ7 19-239)
# T1 construct: also called hPD-L1; CD274
# T1 sequence (Q9NZQ7 19-239 limits assumed): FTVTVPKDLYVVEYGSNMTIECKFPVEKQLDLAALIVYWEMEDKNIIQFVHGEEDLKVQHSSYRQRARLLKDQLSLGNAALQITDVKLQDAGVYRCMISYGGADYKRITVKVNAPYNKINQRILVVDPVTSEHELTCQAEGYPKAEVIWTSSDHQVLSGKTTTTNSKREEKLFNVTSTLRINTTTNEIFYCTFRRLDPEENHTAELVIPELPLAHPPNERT
# procedure.details: SPR (Biacore), human PD-L1
measured.property: kon (M⁻¹ s⁻¹)

1) ATI-964 (designed binder, 10Fn3 Adnectin; also called parent of ADX_5322_A02) MGVSDVPRDLEVVAATPTSLLISWSYDGSIERYYRITYGETGGNSPVQEFTVPPDQKTATISGLKPGVDYTITVYAVRLEEAHYYRESPISINYRTEIDKPSQHHHHHH :: 360000
2) ATI-967 (designed binder, 10Fn3 Adnectin; also called parent of ADX_5417_E01) MGVSDVPRDLEVVAATPTSLLISWQGQLSPSFYYRITYGETGGNSPVQEFTVPVASGTATISGLKPGVDYTITVYAVTSHGIYFYAPISINYRTEIDKPSQHHHHHH :: 2.1e+06
3) ATI-968 (designed binder, 10Fn3 Adnectin; also called ADX_1760_C01) MGVSDVPRDLEVVAATPTSLLISWIAPFYNVIYYRITYGETGGNSPVQEFTVPGTGYTATISGLKPGVDYTITVYAVTDGASIASYAFPISINYRTEIDKPSQHHHHHH :: 750000
4) ATI-966 (designed binder, 10Fn3 Adnectin) MGVSDVPRDLEVVAATPTSLLISWHRFSSIMAYYRITYGETGGNSPVQEFTVAGSVNTATISGLKPGVDYTITVYAVTIHNVSFPISINYRTEIDKPSQHHHHHH :: 2.5e+06
